molecular target: His-tagged KRAS G12D protein (Homo sapiens (Human), UniProt P01116, G12D); assay: KRAS G12D TR-FRET Assay; details: biotinylated KRPep-2d, 10 μM GDP
Sequence (P01116-2 other isoform, or with tags, fused parts or gaps G12D): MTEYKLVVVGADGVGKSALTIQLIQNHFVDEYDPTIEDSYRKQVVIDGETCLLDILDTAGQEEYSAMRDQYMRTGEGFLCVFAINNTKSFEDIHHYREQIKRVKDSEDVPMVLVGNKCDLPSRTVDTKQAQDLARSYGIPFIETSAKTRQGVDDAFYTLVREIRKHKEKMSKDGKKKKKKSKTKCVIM
VALUE_TYPE: IC50 (nM)

Here is how some compounds turned out for IC50.
COMPOUND	IC50, nM
N#Cc1c(N)sc2c(F)ccc(-c3c(Cl)cc4c(N5CCCCOCC5)nc(OC[C@@]56CCCN5C[C@H](F)C6)nc4c3F)c12 [Example 51]	2
N#Cc1c(N)sc2c(F)ccc(-c3c(Cl)cc4c(N5CCCC[C@H](C#N)C5)nc(OC[C@@]56CCCN5C[C@H](F)C6)nc4c3F)c12 [Example 69]	139
N#Cc1c(N)sc2c(F)ccc(-c3c(Cl)cc4c(N5CCCCC(C#N)C5)nc(OC[C@@]56CCCN5C[C@H](F)C6)nc4c3F)c12 (some centres unmarked) [Example 57]	3
N#Cc1c(N)sc2c(F)ccc(-c3c(Cl)cc4c(N5CCCC[C@@H](C#N)C5)nc(OC[C@@]56CCCN5C[C@H](F)C6)nc4c3F)c12 [Example 68]	144
C[C@@H]1CCCN1c1nc(OC[C@@]23CCCN2C[C@H](F)C3)nc2c(F)c(-c3ccc(F)c4sc(N)c(C#N)c34)c(Cl)cc12 [Example 66]	24
N#Cc1c(N)sc2c(F)ccc(-c3c(Cl)cc4c(N5CCCS(=O)(=O)CC5)nc(OC[C@@]56CCCN5C[C@H](F)C6)nc4c3F)c12 [Example 25]	3

1 = N#Cc1c(N)sc2c(F)ccc(-c3c(Cl)cc4c(N5CCC[C@@H](C#N)C5)nc(OC[C@@]56CCCN5C[C@H](F)C6)nc4c3F)c12 [Example 54]
2 = CCC1(O)COCCN(c2nc(OC[C@@]34CCCN3C[C@H](F)C4)nc3c(F)c(-c4ccc(F)c5sc(N)c(C#N)c45)c(Cl)cc23)C1 (single isomer, unassigned) [Example 45]
3 = CC1(O)COCCN(c2nc(OC[C@@]34CCCN3C[C@H](F)C4)nc3c(F)c(-c4ccc(F)c5sc(N)c(C#N)c45)c(Cl)cc23)C1 (single isomer, unassigned) [Example 23]
4 = N#Cc1c(N)sc2c(F)ccc(-c3c(Cl)cc4c(N5CCC[C@H]5CO)nc(OC[C@@]56CCCN5C[C@H](F)C6)nc4c3F)c12 [Example 49]
Exam item: Returns the items ordered by IC50, from maximum to minimum. Could you list the labels in the order requested?
Marked response: 3, 1, 2, 4

1 = N#Cc1c(N)sc2c(F)ccc(-c3c(Cl)cc4c(C5CC5)nc(OC[C@@]56CCCN5C[C@H](F)C6)nc4c3F)c12 [Example 71, bis(2,2,2-trifluoroacetate)]
2 = CC(C)(O)COc1nc(N2CCOC[C@@](C)(O)C2)c2cc(Cl)c(-c3ccc(F)c4sc(N)c(C#N)c34)c(F)c2n1 (single isomer, unassigned) [Example 67]
3 = C[C@@]1(CO)CCCN1c1nc(OC[C@@]23CCCN2C[C@H](F)C3)nc2c(F)c(-c3ccc(F)c4sc(N)c(C#N)c34)c(Cl)cc12 [Example 47]
Exam item: Returns the items ordered by IC50, from maximum to minimum. Could you list the labels in the order requested?
Marked response: 2, 3, 1

a = N#Cc1c(N)sc2c(F)ccc(-c3c(Cl)cc4c(N5CCCOCC5)nc(OC[C@@]56CCCN5C[C@H](F)C6)nc4c3F)c12 [Example 55]
b = COC[C@@H]1CCCN1c1nc(OC[C@@]23CCCN2C[C@H](F)C3)nc2c(F)c(-c3ccc(F)c4sc(N)c(C#N)c34)c(Cl)cc12 [Example 48]
Exam item: Compare reported IC50 values for a and b . Which is lower? Your choice should be expressed through its label.
Marked response: a
(a: 5 nM, b: 45 nM)

---

biological target: GDP-bound KRAS protein (aa 1-169), G12D and C118A; SOS-mediated nucleotide exchange (Homo sapiens (Human), UniProt P01116, C118A/G12D); assay: KRAS G12D Coupled Nucleotide Exchange Assay; conditions: 2 h compound pre-incubation, GTP, cRAF AlphaScreen
Sequence (P01116 other isoform, or with tags, fused parts or gaps G12D/C118A): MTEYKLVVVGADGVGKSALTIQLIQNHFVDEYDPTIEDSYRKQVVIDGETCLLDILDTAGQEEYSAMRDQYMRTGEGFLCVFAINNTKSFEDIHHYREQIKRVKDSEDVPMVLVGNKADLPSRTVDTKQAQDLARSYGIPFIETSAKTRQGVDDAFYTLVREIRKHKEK
VALUE_TYPE: IC50 (nM)

a = N#Cc1c(N)sc2c(F)ccc(-c3c(Cl)cc4c(N5CCOC[C@@H](O)C5)nc(OC[C@@]56CCCN5C[C@H](F)C6)nc4c3F)c12
b = N#Cc1c(N)sc2c(F)ccc(-c3c(Cl)cc4c(N5CCC[C@H]5C#N)nc(OC[C@@]56CCCN5C[C@H](F)C6)nc4c3F)c12
Exam item: Choose between a and b : whose measured IC50 value is numerically larger? Your choice should be expressed through its label.
Marked response: a

---

molecular target: His-tagged KRAS G12D protein (Homo sapiens (Human), UniProt P01116, G12D); test: KRAS G12D TR-FRET Assay; format: binding; conditions: biotinylated KRPep-2d, 10 μM GDP
pIC50: −log10 of the molar value.
VALUE_TYPE: pIC50

MOLECULE	SYSTEM_TESTED	pIC50
C[C@@]1(O)CCCN(c2nc(OC[C@@]34CCCN3C[C@H](F)C4)nc3c(F)c(-c4ccc(F)c5sc(N)c(C#N)c45)c(Cl)cc23)C1	His-tagged KRAS G12D protein (Homo sapiens (Human), UniProt P01116, G12D)	8.52

a = N#Cc1c(N)sc2c(F)ccc(-c3c(Cl)cc4c(N5CCOC[C@@H](O)C5)nc(OC[C@@]56CCCN5C[C@H](F)C6)nc4c3F)c12
b = N#Cc1c(N)sc2c(F)ccc(-c3c(Cl)cc4c(N5CCC[C@@H](O)C5)nc(OC[C@@]56CCCN5C[C@H](F)C6)nc4c3F)c12
Exam item: Compare reported pIC50 values for a and b . Which is lower? Your choice should be expressed through its label.
Marked response: b

---

Target: His-tagged KRAS G12D protein (Homo sapiens (Human), UniProt P01116, G12D)
Assay: KRAS G12D TR-FRET Assay
Settings: biotinylated KRPep-2d, 10 μM GDP
Protocol: Compounds of interest were prepared in a dose-response titration in DMSO, and 80 nL were added via Labcyte Echo to each well of a 384-well plate (Perkin Elmer 6008280). […] Plates were read using PerkinElmer En Vision (ex: 320 nm, em1: 665 nm, em2: 615 nm) and em1/em2 data was used to generate curve fits using a 4-parameter logistic model to calculate IC50 values.
VALUE_TYPE: IC50 (nM)

Here is how some molecules turned out for IC50.
MOLECULE	IC50 (nM)
N#Cc1c(N)sc2c(F)ccc(-c3c(Cl)cc4c(N5CCOCC(F)C5)nc(OC[C@@]56CCCN5C[C@H](F)C6)nc4c3F)c12 (single isomer, unassigned) [Example 59]	5
N#Cc1c(N)sc2c(F)ccc(-c3c(Cl)cc4c(N5CCOCC(O)(C(F)F)C5)nc(OC[C@@]56CCCN5C[C@H](F)C6)nc4c3F)c12 (single isomer, unassigned)	6

P = CC1(O)COCCN(c2nc(OC[C@@]34CCCN3C[C@H](F)C4)nc3c(F)c(-c4ccc(F)c5sc(N)c(C#N)c45)c(Cl)cc23)C1 (single isomer, unassigned) [Example 24]
Q = N#Cc1c(N)sc2c(F)ccc(-c3c(Cl)cc4c(N5CCCC6(CC(=O)C6)C5)nc(OC[C@@]56CCCN5C[C@H](F)C6)nc4c3F)c12
Exam item: Compare reported IC50 values for P and Q . Which is lower? Your choice should be expressed through its label.
Marked response: P
(P: 3 nM, Q: 19 nM)

---

Target: GDP-bound KRAS protein (aa 1-169), G12D and C118A; SOS-mediated nucleotide exchange (Homo sapiens (Human), UniProt P01116, C118A/G12D)
Experiment: KRAS G12D Coupled Nucleotide Exchange Assay
Type: biochemical
Settings: 2 h compound pre-incubation, GTP, cRAF AlphaScreen
Protocol: Purified GDP-bound KRAS protein (aa 1-169), containing both G12D and C118A amino acid substitutions and an N-terminal His-tag, was pre-incubated in assay buffer (25 mM HEPES pH 7.4, 10 mM MgCl2, and 0.01% Triton X-100) with a compound dose-response titration for 2 h. […] The assay plates were then read on a PerkinElmer En Vision Multilabel Reader, using AlphaScreen® technology, and data were analyzed using a 4-parameter logistic model to calculate IC50 values.
VALUE_TYPE: IC50 (nM)

Here is how some compounds turned out for IC50.
COMPOUND	IC50 [nM]
N#Cc1c(N)sc2c(F)ccc(-c3c(Cl)cc4c(N5CCCCCCC5)nc(OC[C@@]56CCCN5C[C@H](F)C6)nc4c3F)c12 [Example 31]	1
CCC1(O)COCCN(c2nc(OC[C@@]34CCCN3C[C@H](F)C4)nc3c(F)c(-c4ccc(F)c5sc(N)c(C#N)c45)c(Cl)cc23)C1 (single isomer, unassigned) [Example 45]	5
CCC1(O)CCCN(c2nc(OC[C@@]34CCCN3C[C@H](F)C4)nc3c(F)c(-c4ccc(F)c5sc(N)c(C#N)c45)c(Cl)cc23)C1 (some centres unmarked) [Example 37]	10
N#Cc1c(N)sc2c(F)ccc(-c3c(Cl)cc4c(N5CCCCC(F)C5)nc(OC[C@@]56CCCN5C[C@H](F)C6)nc4c3F)c12 (some centres unmarked) [Example 27]	2
CCc1cc2c(N3CCOCC(C)(O)C3)nc(OC[C@@]34CCCN3C[C@H](F)C4)nc2c(F)c1-c1ccc(F)c2sc(N)c(C#N)c12 (some centres unmarked) [Example 62]	1
N#Cc1c(N)sc2c(F)ccc(-c3c(Cl)cc4c(N5CCC[C@@H](O)C5)nc(OC[C@@]56CCCN5C[C@H](F)C6)nc4c3F)c12 [Example 35]	5

I = CC1(O)COCCN(c2nc(OCC34CCCN3CC(F)(F)C4)nc3c(F)c(-c4ccc(F)c5sc(N)c(C#N)c45)c(Cl)cc23)C1 (single isomer, unassigned) [Example 60]
II = N#Cc1c(N)sc2c(F)ccc(-c3c(Cl)cc4c(N5CCCC6(CCS6(=O)=O)C5)nc(OC[C@@]56CCCN5C[C@H](F)C6)nc4c3F)c12 (some centres unmarked) [Example 10]
Exam item: Choose between I and II : whose measured IC50 value is numerically larger? Your choice should be expressed through its label.
Marked response: II

I = N#Cc1c(N)sc2c(F)ccc(-c3c(Cl)cc4c(N5CCCOCC5)nc(OC[C@@]56CCCN5C[C@H](F)C6)nc4c3F)c12 [Example 55]
II = N#Cc1c(N)sc2c(F)ccc(-c3c(Cl)cc4c(N5CCOC[C@H](O)C5)nc(OC[C@@]56CCCN5C[C@H](F)C6)nc4c3F)c12 [Example 30]
Exam item: Choose between I and II : whose measured IC50 value is numerically larger? Your choice should be expressed through its label.
Marked response: I
(I: 8 nM, II: 0.8 nM)
